biological target: LFA-1 binding to ICAM-1 (Homo sapiens, UniProt P05107+P20701); assay: Inhibition of LFA-1 binding to ICAM-1 (LFA-1/Biotin-sICAM-1 AlphaScreen molecular assay); settings: highest compound concentration 1 μM in 1% DMSO, 37° C., 90 minutes
Sequence (P20701 26-1170): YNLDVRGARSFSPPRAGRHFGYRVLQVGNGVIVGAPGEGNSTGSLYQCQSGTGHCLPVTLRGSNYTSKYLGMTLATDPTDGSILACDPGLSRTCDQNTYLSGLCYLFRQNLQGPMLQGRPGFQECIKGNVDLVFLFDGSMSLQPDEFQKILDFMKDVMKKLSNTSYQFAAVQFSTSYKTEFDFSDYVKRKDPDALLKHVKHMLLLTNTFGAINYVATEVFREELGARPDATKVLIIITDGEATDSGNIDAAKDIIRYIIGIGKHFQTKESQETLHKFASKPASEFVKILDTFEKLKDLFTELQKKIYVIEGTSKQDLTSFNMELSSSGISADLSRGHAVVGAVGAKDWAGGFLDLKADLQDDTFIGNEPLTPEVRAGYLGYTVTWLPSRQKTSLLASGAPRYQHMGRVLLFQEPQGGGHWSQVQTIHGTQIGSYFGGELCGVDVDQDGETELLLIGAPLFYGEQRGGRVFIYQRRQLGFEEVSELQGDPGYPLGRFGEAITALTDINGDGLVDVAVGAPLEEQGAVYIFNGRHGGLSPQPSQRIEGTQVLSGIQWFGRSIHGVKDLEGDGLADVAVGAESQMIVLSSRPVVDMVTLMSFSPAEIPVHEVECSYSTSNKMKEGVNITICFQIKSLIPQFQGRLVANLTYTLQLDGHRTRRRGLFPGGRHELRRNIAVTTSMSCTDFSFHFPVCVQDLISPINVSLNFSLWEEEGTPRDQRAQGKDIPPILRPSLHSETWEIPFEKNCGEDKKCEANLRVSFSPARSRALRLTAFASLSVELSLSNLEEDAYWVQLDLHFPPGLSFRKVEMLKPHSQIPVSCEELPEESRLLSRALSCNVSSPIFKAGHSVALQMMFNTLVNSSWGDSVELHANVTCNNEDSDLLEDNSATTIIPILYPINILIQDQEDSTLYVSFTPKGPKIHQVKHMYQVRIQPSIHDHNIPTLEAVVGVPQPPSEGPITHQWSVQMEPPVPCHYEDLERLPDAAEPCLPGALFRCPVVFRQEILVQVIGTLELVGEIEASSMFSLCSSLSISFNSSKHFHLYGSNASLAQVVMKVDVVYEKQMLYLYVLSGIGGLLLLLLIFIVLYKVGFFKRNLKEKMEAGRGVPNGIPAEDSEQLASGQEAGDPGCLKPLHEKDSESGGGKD
Sequence (P05107 23-769): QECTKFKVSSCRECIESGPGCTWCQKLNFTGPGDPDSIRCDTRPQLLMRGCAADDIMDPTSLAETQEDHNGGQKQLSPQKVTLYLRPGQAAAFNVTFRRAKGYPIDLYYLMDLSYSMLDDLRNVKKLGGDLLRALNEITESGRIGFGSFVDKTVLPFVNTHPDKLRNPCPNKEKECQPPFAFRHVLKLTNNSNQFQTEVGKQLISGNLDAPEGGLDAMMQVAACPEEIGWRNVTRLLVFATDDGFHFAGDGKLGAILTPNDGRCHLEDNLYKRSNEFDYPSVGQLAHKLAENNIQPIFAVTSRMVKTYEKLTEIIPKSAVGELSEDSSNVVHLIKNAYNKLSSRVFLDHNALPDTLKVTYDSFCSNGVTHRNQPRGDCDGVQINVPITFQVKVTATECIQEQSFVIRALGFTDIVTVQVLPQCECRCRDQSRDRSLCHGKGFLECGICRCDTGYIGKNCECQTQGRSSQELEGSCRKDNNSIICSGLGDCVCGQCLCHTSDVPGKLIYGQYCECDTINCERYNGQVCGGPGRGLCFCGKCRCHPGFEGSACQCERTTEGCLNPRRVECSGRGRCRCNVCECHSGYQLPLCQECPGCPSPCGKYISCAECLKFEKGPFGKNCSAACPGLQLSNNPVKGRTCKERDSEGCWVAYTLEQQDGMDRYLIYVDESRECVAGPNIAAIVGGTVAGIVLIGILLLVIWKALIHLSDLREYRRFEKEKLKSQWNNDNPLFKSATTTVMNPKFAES
pIC50: −log10 of the molar value.
reported endpoint: pIC50

See these solved cases before continuing.
compound | assay target | pIC50
CC(C)(CO)NC(=O)c1ccc(C2(NC(=O)C3(NC(=O)c4cnc5n4[C@](C)(Cc4ccc(C#N)cc4)C(=O)N5c4cc(Cl)cc(Cl)c4)CC3)CC2)nc1 | LFA-1 binding to ICAM-1 (Homo sapiens, UniProt P05107+P20701) | 9.25
C[C@@]1(Cc2ccc(C#N)cc2)C(=O)N(c2cc(Cl)cc(Cl)c2)c2ncc(C(=O)NC3(C(=O)NC4(c5cccc(C(=O)N6CCCC(C(N)=O)C6)n5)CC4)CC3)n21 (some centres unmarked) | LFA-1 binding to ICAM-1 (Homo sapiens, UniProt P05107+P20701) | 8.59
C[C@@]1(Cc2ccc(C#N)cc2)C(=O)N(c2cc(Cl)cc(Cl)c2)c2ncc(C(=O)NC3(C(=O)NC4(c5cc(C(=O)N6CCCC(CO)C6)ccn5)CC4)CC3)n21 (some centres unmarked) | LFA-1 binding to ICAM-1 (Homo sapiens, UniProt P05107+P20701) | 9.00

1 = CC(=O)NC1CCN(C(=O)c2ccc(C3(NC(=O)C4(NC(=O)c5cnc6n5[C@](C)(Cc5ccc(C#N)cc5)C(=O)N6c5cc(Cl)cc(Cl)c5)CC4)CC3)nc2)C1 (some centres unmarked)
2 = C[C@@]1(Cc2ccc(C#N)cc2)C(=O)N(c2cc(Cl)cc(Cl)c2)c2ncc(C(=O)NC3(C(=O)NC4(c5cc(C(=O)NCCn6ccnc6)ccn5)CC4)CC3)n21
// compare measured pIC50, left 1 , right 2 , return larger Write down the label of the entry you select.
2

* * *

molecular target: LFA-1 binding to ICAM-1 (Homo sapiens, UniProt P05107+P20701); experiment: Inhibition of LFA-1 binding to ICAM-1 (LFA-1/Biotin-sICAM-1 AlphaScreen molecular assay); settings: highest compound concentration 1 μM in 1% DMSO, 37° C., 90 minutes
reported endpoint: IC50 (nM)

See these solved cases before continuing.
molecule | reported endpoint | result
CN(C)CCNC(=O)c1ccnc(C2(NC(=O)C3(NC(=O)c4cnc5n4[C@](C)(Cc4ccc(C#N)cc4)C(=O)N5c4cc(Cl)cc(Cl)c4)CC3)CC2)c1 | IC50 | 1.1
CN(C)C1CCN(C(=O)c2ccc(C3(NC(=O)C4(NC(=O)c5cnc6n5[C@](C)(Cc5ccc(C#N)cc5)C(=O)N6c5cc(Cl)cc(Cl)c5)CC4)CC3)nc2)C1 (some centres unmarked) | IC50 | 1.8
C[C@@]1(Cc2ccc(C#N)cc2)C(=O)N(c2cc(Cl)cc(Cl)c2)c2ncc(C(=O)NC3(C(=O)NC4(c5ccc(C(=O)N6CCNCC6)cn5)CC4)CC3)n21 | IC50 | 0.6
C[C@@]1(Cc2ccc(C#N)cc2)C(=O)N(c2cc(Cl)cc(Cl)c2)c2ncc(C(=O)NC3(C(=O)NC4(c5cc(C(=O)N6CCN(S(C)(=O)=O)CC6)ccn5)CC4)CC3)n21 | IC50 | 1.4
COCCNC(=O)c1ccnc(C2(NC(=O)C3(NC(=O)c4cnc5n4[C@](C)(Cc4ccc(C#N)cc4)C(=O)N5c4cc(Cl)cc(Cl)c4)CC3)CC2)c1 | IC50 | 0.9
C[C@@]1(Cc2ccc(C#N)cc2)C(=O)N(c2cc(Cl)cc(Cl)c2)c2ncc(C(=O)NC3(C(=O)NC4(c5cccc(C(=O)N6CCC[C@H]6C(N)=O)n5)CC4)CC3)n21 | IC50 | 2.5

P = CC(C)(CO)NC(=O)c1ccnc(C2(NC(=O)C3(NC(=O)c4cnc5n4[C@](C)(Cc4ccc(C#N)cc4)C(=O)N5c4cc(Cl)cc(Cl)c4)CC3)CC2)c1
Q = C[C@@]1(Cc2ccc(C#N)cc2)C(=O)N(c2cc(Cl)cc(Cl)c2)c2ncc(C(=O)NC3(C(=O)NC4(c5ccc(C(=O)N6CCCC(C(N)=O)C6)cn5)CC4)CC3)n21 (some centres unmarked)
Looking only at measured IC50, which entry is lower, P or Q ? Write down the label of the entry you select.
Q
